The origin of these recorded values is the supplement of paper PMC10567573.

- assay_summary: protein stability index of a GFP-peptide fusion (GPS, HEK-293T) (PSI 1-6); higher = more stable;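 also: 24-mer peptide tiles fused after GFP, lentivirally expressed, FACS-sorted into six equal bins by GFP/DsRed ratio, decoded by Illumina sequencing, PSI is the read-weighted mean bin number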
- assay_context: treatment: DMSO; c terminus: a fixed tail appended
Please enter Y where protein stability index is greater than or equal to 3, and N where it is lower.

Query: Check the entry KPIHTTILNPHVHVIGEDAACIAY [CAMK2B] : does protein stability index equal or exceed 3?
Reply: N

Query: Check the entry ISESGGLNWKMTLCLLVAWSIVGM [SLC6A17] : does protein stability index equal or exceed 3?
Reply: N

Query: Check the entry LGDPCPMLESPGAPCRSAQASVSC [HDAC6] : does protein stability index equal or exceed 3?
Reply: Y

Query: Check the entry LLQIIDTTLLKCYLHTNVALVAPL [VPS39] : does protein stability index equal or exceed 3?
Reply: Y

Query: Check the entry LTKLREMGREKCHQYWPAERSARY [PTPRD] : does protein stability index equal or exceed 3?
Reply: N

Query: Check the entry NALKDARAKLDELEGALHQAKEEL [KRT71] : does protein stability index equal or exceed 3?
Reply: Y

Query: Check the entry VWVTHEEMETLETSTKTDSEEGSW [PPFIA4] : does protein stability index equal or exceed 3?
Reply: Y

Query: Check the entry LLFSGGLSESETGPMEEVERQVLP [PBXIP1] : does protein stability index equal or exceed 3?
Reply: Y

Query: Check the entry ELSSVHPPHYFFTYRIRIEMSKDA [FBXO3] : does protein stability index equal or exceed 3?
Reply: N

Query: Check the entry EYECRRRMLMKRLDVTVQSFGWSD [FAM98B] : does protein stability index equal or exceed 3?
Reply: N

###

Provide the reported protein stability index of each item.
- assay_summary: protein stability index of a GFP-peptide fusion (GPS, HEK-293T) (PSI 1-6); higher = more stable
- assay_context: treatment: DMSO; c terminus: a fixed tail appended
Please give the numeric answer without any surrounding text.

Query: Can you share its protein stability index? I mean this sequence: EAGNEFKNIFGTPEFVAPEIVNYE [DAPK3]
Reply: 4.02

Query: Can you share its protein stability index? I mean this sequence: GNLNIHQRTHTGEKPYGCIDCGKA [ZNF649]
Reply: 3.96

Query: Can you share its protein stability index? I mean this sequence: QRKVDGIQKAYDELRLQSEAFKKH [CCDC89]
Reply: 4.07

###

- assay_summary: protein stability index of a GFP-peptide fusion (GPS, HEK-293T) (PSI 1-6); higher = more stable
- assay_context: treatment: DMSO; c terminus: a fixed tail appended
Please enter fulfilled where protein stability index is greater than or equal to 3, and not fulfilled where it is lower.

Query: Check the entry VQTEDQYQFSYRAALEYLGSFDHY [PTPRD] : does protein stability index equal or exceed 3?
Reply: not fulfilled

Query: Check the entry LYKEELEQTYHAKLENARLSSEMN [LMNB1] : does protein stability index equal or exceed 3?
Reply: fulfilled

Query: Check the entry FTVRPDVTQNSTAEPSRFSSSDSD [FCHO1] : does protein stability index equal or exceed 3?
Reply: fulfilled

Query: Check the entry LPGNTTEATPRSLRASGSLCGPHA : does protein stability index equal or exceed 3?
Reply: fulfilled

Query: Check the entry QACARNILVQTPESESPQSHRAAG [TRIM9] : does protein stability index equal or exceed 3?
Reply: fulfilled

Query: Check the entry AVVAAGGGSSGQVTSNGSIGRDPP [CLPTM1] : does protein stability index equal or exceed 3?
Reply: fulfilled

Query: Check the entry INQSFTGAERKAALCELLEKETQI [IQUB] : does protein stability index equal or exceed 3?
Reply: fulfilled

Query: Check the entry GALETRSLKDHKVSFLRSGTKLIF [C2CD2L] : does protein stability index equal or exceed 3?
Reply: not fulfilled

Query: Check the entry FQILKYLFQIDVYDFMNSAFSPIV [MIA2] : does protein stability index equal or exceed 3?
Reply: not fulfilled

Query: Check the entry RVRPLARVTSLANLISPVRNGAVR [NET1] : does protein stability index equal or exceed 3?
Reply: fulfilled

Query: Check the entry TSDVYSSDAAFGGILERYWLSSRA [MYORG] : does protein stability index equal or exceed 3?
Reply: not fulfilled

Query: Check the entry GLSLTDESDSCVSFEAPLTPLIQQ [PSD2] : does protein stability index equal or exceed 3?
Reply: fulfilled

Query: Check the entry QKASLLIQQALTMFPGVLLPLLES [TCF25] : does protein stability index equal or exceed 3?
Reply: fulfilled

###

- assay_summary: protein stability index of a GFP-peptide fusion (GPS, HEK-293T) (PSI 1-6); higher = more stable
- assay_context: treatment: MLN4924 1 uM, 8 h; c terminus: a fixed tail appended
Please enter 1 (yes) where protein stability index is greater than or equal to 3, and 0 (no) where it is lower.

Query: Check the entry SERPLDFLDLERPPTTPQNEEIRA [MFF] : does protein stability index equal or exceed 3?
Reply: 1 (yes)

Query: Check the entry YEEEFDYETESETESEIESETDFE [GNAS] : does protein stability index equal or exceed 3?
Reply: 1 (yes)

Query: Check the entry ERSDLEEDNEREGTENGAIDAVPV [ZC3H15] : does protein stability index equal or exceed 3?
Reply: 1 (yes)

Query: Check the entry QSFCGENIMMPMGGMMPPGPGIPP [ZNF207] : does protein stability index equal or exceed 3?
Reply: 1 (yes)

Query: Check the entry YADHNYGARPPPTPPASPPPSVLI [KMT2E] : does protein stability index equal or exceed 3?
Reply: 1 (yes)

Query: Check the entry PDGLRSGDGVPPRSLQDGTREGFG [LCOR] : does protein stability index equal or exceed 3?
Reply: 1 (yes)

Query: Check the entry NGNGKNGGLEHVPSSSSIHNGDME [BNIP3L] : does protein stability index equal or exceed 3?
Reply: 1 (yes)

Query: Check the entry IERGASLEEVNDEGYTPLMEAARE [ANKRD17] : does protein stability index equal or exceed 3?
Reply: 1 (yes)

Query: Check the entry LLAAREDLSKIIRTSSGTSREKTA [FAM98B] : does protein stability index equal or exceed 3?
Reply: 1 (yes)

Query: Check the entry YLRKGRGETRICKIYDSPCLPEAE [RAD51] : does protein stability index equal or exceed 3?
Reply: 1 (yes)

Query: Check the entry AMSTLGVIEAIAQITVKALPKPPG [PTPRD] : does protein stability index equal or exceed 3?
Reply: 0 (no)

Query: Check the entry STNDKTVKLWKVSERDKRPEGYNL [PPP2R2B] : does protein stability index equal or exceed 3?
Reply: 1 (yes)

Query: Check the entry EEEEEGRFYYSEDDHGDECSYTDL [KCNA4] : does protein stability index equal or exceed 3?
Reply: 1 (yes)

Query: Check the entry ADGLLQLGPLGSTAFLPDSKCLVD [GALNT9] : does protein stability index equal or exceed 3?
Reply: 1 (yes)

Query: Check the entry TQTWCTQSWNNQAWNSPFYNCGEE [NANOGP8] : does protein stability index equal or exceed 3?
Reply: 1 (yes)

Query: Check the entry IGHFNTASGVGFILGPVVGGYLTE [MFSD9] : does protein stability index equal or exceed 3?
Reply: 0 (no)

Query: Check the entry LNECVGTAYWALAGSIGGLFFAVG [SLC22A15] : does protein stability index equal or exceed 3?
Reply: 1 (yes)

Query: Check the entry KMAAFHGAGLKRYLLTVMAAAAKA [ADAMTS4] : does protein stability index equal or exceed 3?
Reply: 0 (no)

Query: Check the entry EPEDMETLEEKFSDVHPVALNFMK [CDKL4] : does protein stability index equal or exceed 3?
Reply: 1 (yes)

Query: Check the entry SCSQSHCCSRYLCMGAMSLFLPCL [SPRY1] : does protein stability index equal or exceed 3?
Reply: 0 (no)

Query: Check the entry ELNAEKFKNSLLQKELKKAQMAKA [WEE1] : does protein stability index equal or exceed 3?
Reply: 1 (yes)

Query: Check the entry LVKKVEEDEAGGRFVAFSGEGQSL [UFD1] : does protein stability index equal or exceed 3?
Reply: 1 (yes)

Query: Check the entry GEALGRDHSEHLSGSSYRDALQRY [RBMY1A1] : does protein stability index equal or exceed 3?
Reply: 1 (yes)

Query: Check the entry IDDLFAFVIKMPVMYRIGCLRDDV [CLPTM1] : does protein stability index equal or exceed 3?
Reply: 1 (yes)

Query: Check the entry MVTCKSEFYHDEFKRWIYLNDQNL [GAN] : does protein stability index equal or exceed 3?
Reply: 0 (no)

Query: Check the entry LGDPCPMLESPGAPCRSAQASVSC [HDAC6] : does protein stability index equal or exceed 3?
Reply: 1 (yes)

Query: Check the entry VDSAEYSCLKAIVLFTSDACGLSD [NR2F2] : does protein stability index equal or exceed 3?
Reply: 0 (no)

Query: Check the entry EDHIDDAKYCGHLYGLGSGSSYVQ [CNOT7] : does protein stability index equal or exceed 3?
Reply: 1 (yes)

Query: Check the entry MQERVQRLEAARLSLEEELSRVKA [LRRC45] : does protein stability index equal or exceed 3?
Reply: 1 (yes)

Query: Check the entry KVIDDTNITRLQLETEIEALKEEL [KRT18] : does protein stability index equal or exceed 3?
Reply: 1 (yes)

Query: Check the entry NVCDDYDVTCNEFFFDRNPGAFGT [KCNG1] : does protein stability index equal or exceed 3?
Reply: 1 (yes)
